Test system: Monochoria vaginalis, Presl.
Assay: Preemergence weed control under flooded paddy conditions, MOOVA (Monochoria)
Assay type: in vivo
Details: Rate 0.0320 kg/ha; preemergence, flooded paddy; rated three to four weeks after treatment
outcome.measure: MOOVA herbicidal effect rating
# print the numeric value only

Quick check: MOOVA herbicidal effect rating of `Cn1c(C(F)(F)F)cc(=O)n(-c2ccc3snc(C(C)(C)C#N)c3c2)c1=O` ?
8.0

Next entry: `Cn1c(C(F)(F)F)cc(=O)n(-c2ccc3snc(/C=C/C=O)c3c2)c1=O`
0.0

// query: Cn1c(C(F)(F)F)cc(=O)n(-c2ccc3snc(C(Br)C#N)c3c2)c1=O (stereo not drawn)
9.0

Okay, and `COC(=O)COc1ccc(-c2nsc3ccc(-n4c(=O)cc(C(F)(F)F)n(C)c4=O)cc23)cc1` ?
8.0

Another molecule to look at: `Cn1c(C(F)(F)F)cc(=O)n(-c2ccc3snc(COCC(=O)O)c3c2)c1=O`
9.0

Proceed to `Cn1c(C(F)(F)F)cc(=O)n(-c2ccc3snc(C=C(F)Br)c3c2)c1=O`
9.0

Next up: `Cc1ccc(OCC(=O)NS(=O)(=O)c2sc(C)nc2C)c(-c2nsc3ccc(-n4c(=O)cc(C(F)(F)F)n(C)c4=O)cc23)c1`
0.0

Then this molecule: `COc1c(-c2nsc3ccc(-n4c(=O)cc(C(F)(F)F)n(C)c4=O)cc23)ccc(C)c1C`
7.5

Another molecule to look at: `Cn1c(C(F)(F)F)cc(=O)n(-c2ccc3snc(COCC(=O)NS(C)(=O)=O)c3c2)c1=O`
9.0
